Tested on: EKVX NSCLC
Assay: NCI tumour cell line growth inhibition, 48 h; in the data active = GI50 below about 0.43 µM; inactive = the rest
Hi! Could you answer with just one of these? active, inactive

Qu. Recorded test call requested for `COc1ccc(-c2nnc(N3CCN(C(=O)CN4CCN(c5ccccc5)CC4)CC3)nc2-c2ccc(OC)cc2)cc1`
Ans. inactive

Qu. Try this compound too: `O=[N+]([O-])c1cccc2ccc(N/N=C/c3ccccc3O)nc12`
Ans. inactive

Qu. Next compound: `CN(C)c1ccc(N=Nc2ccccn2)c(O)c1`
Ans. active

Qu. Next compound: `O=C(Nc1cc(C(F)(F)F)ccc1Cl)c1cccc(NC2=C(Cl)C(=O)N(Cc3ccccc3)C2=O)c1`
Ans. inactive

Qu. Again, but for `NCCCn1c2c(c3ccc([N+](=O)[O-])cc3c1=O)C(=O)c1ccccc1-2`
Ans. active

Qu. Can you handle `COC(=O)c1ccc2c(c1)/C(=C\c1cc(Br)c(O)c(Br)c1)C(=O)N2` next?
Ans. inactive
